Read-out: Cytochrome P450 4A22 (Homo sapiens) (UniProt Q5TCH4)
Test: LTEA_HepaRG_CYP4A22: Life Technologies and Expression Analysis (LTEA) Assay for Cytochrome P450 4A22 (CYP4A22) using HepaRG (AID 2283495)
Settings: mRNA level, 48 h; actives raise or lower the signal
The source made the active and inactive calls. Rule for the calls: active = hit-call score of the fitted dose curve at least 0.9, where 1 is the maximum; inactive = score below 0.9.
Give one outcome, nothing more. List: 1 (yes) (active), 0 (no) (inactive)

Solved entries:
INSERT INTO results (compound, assigned_label) VALUES
  ('O=C(NC(=O)c1c(F)cccc1F)Nc1ccc(OC(F)(F)C(F)OC(F)(F)F)c(Cl)c1 (centres undefined)', '0 (no)'),
  ('O=C(O)COc1ccc(Cl)cc1Cl', '0 (no)'),
  ('Clc1ccccc1-c1nnc(-c2ccccc2Cl)nn1', '0 (no)'),
  ('Cc1[nH]c(=O)n(C(C)(C)C)c(=O)c1Cl', '0 (no)'),
  ('O=[N+]([O-])c1c(Cl)c(Cl)c(Cl)c(Cl)c1Cl', '0 (no)');

Problem: Please indicate how the test categorized CCN(CC)C(=O)SCc1ccc(Cl)cc1 .
Solution: 0 (no)

Problem: Please indicate how the test categorized COP(=S)(OC)Oc1ccc([N+](=O)[O-])cc1 .
Solution: 0 (no)

Problem: Please indicate how the test categorized C[C@H]1[C@H](c2ccc(Cl)cc2)SC(=O)N1C(=O)NC1CCCCC1 .
Solution: 1 (yes)

Problem: Please indicate how the test categorized CC[C@H](C)[C@H]1O[C@]2(C=C[C@@H]1C)C[C@@H]1C[C@@H](C/C=C(\C)[C@@H](O[C@H]3C[C@H](OC)[C@@H](O[C@H]4C[C@H](OC)[C@@H](O)[C@H](C)O4)[C@H](C)O3)[C@@H](C)/C=C/C=C3\CO[C@@H]4[C@H](O)C(C)=C[C@@H](C(=O)O1)[C@]34O)O2 (tested in a mixture with another compound) .
Solution: 1 (yes)

====

Read-out: Cyclin Dependent Kinase Inhibitor 1A (CDKN1A), CDKN1A (gene 1026)
Test: LTEA_HepaRG_CDKN1A: Life Technologies and Expression Analysis (LTEA) Assay for Cyclin Dependent Kinase Inhibitor 1A (CDKN1A) using HepaRG (AID 2283450)
Conditions: mRNA level, 48 h; actives raise or lower the signal
Calls of active or inactive are those of the source. Rule for the calls: active = hit-call score of the fitted dose curve at least 0.9, where 1 is the maximum; inactive = score below 0.9.
Give one outcome, nothing more. List: active, inactive

INSERT INTO measurements (compound, assigned_label) VALUES
  ('O=C(O)C(F)(F)C(F)(F)C(F)(F)C(F)(F)C(F)(F)C(F)(F)C(F)(F)F', 'inactive'),
  ('CCN(CC)C(=O)SCc1ccc(Cl)cc1', 'inactive'),
  ('CCCN(CCOc1c(Cl)cc(Cl)cc1Cl)C(=O)n1ccnc1', 'active'),
  ('CCc1ccc(C(=O)NN(C(=O)c2cc(C)cc(C)c2)C(C)(C)C)cc1', 'inactive'),
  ('CC(C)OC(=O)Nc1cccc(Cl)c1', 'inactive'),
  ('COP(=S)(OC)Oc1ccc(SC)c(C)c1', 'inactive');

Problem: Please indicate how the test categorized CNC(=O)/C=C(\C)OP(=O)(OC)OC .
Solution: inactive

Problem: Please indicate how the test categorized Oc1cc(Cl)ccc1Oc1ccc(Cl)cc1Cl .
Solution: inactive

Problem: Please indicate how the test categorized CC1(c2ccc(Oc3ccccc3)cc2)OC(=O)N(Nc2ccccc2)C1=O (stereo unspecified) .
Solution: active

Problem: Please indicate how the test categorized C#CCN1C(=O)COc2cc(F)c(N3C(=O)C4=C(CCCC4)C3=O)cc21 .
Solution: inactive

Problem: Please indicate how the test categorized O=C(Nc1ccccc1)Nc1cnns1 .
Solution: inactive

Problem: Please indicate how the test categorized CCC(C)Nc1c([N+](=O)[O-])cc(C(C)(C)C)cc1[N+](=O)[O-] (stereo unspecified) .
Solution: inactive

Problem: Please indicate how the test categorized CNC(=O)CSP(=S)(OC)OC .
Solution: inactive

Problem: Please indicate how the test categorized O=C(O)COc1ccc(Cl)cc1Cl .
Solution: inactive

Problem: Please indicate how the test categorized COP(=S)(OC)Oc1ccc([N+](=O)[O-])cc1 .
Solution: inactive

Problem: Please indicate how the test categorized N#CN .
Solution: inactive

Problem: Please indicate how the test categorized CNC(=O)Oc1ccccc1OC(C)C .
Solution: inactive

====

Experiment: STM_H9_OrnCyssISnorm_ratio: Stemina devTOX quickPredict H9 human embryonic stem cell (hESC)-based Assay for Ornithine (ORN):Cystine (CYSS) Ratio (AID 2283714)
Results filed as inconclusive are left out. Activity calls are given as the source filed them. The calls were made as follows: active = hit-call score of the fitted dose curve at least 0.9, where 1 is the maximum; inconclusive = response in the unintended direction; inactive = score below 0.9.
Below, each entry is listed with its recorded AC50.

Completed entries (count: 3):
INSERT INTO assay_data (compound, test_value) VALUES
  ('O=S1OCC2C(CO1)C1(Cl)C(Cl)=C(Cl)C2(Cl)C1(Cl)Cl (configuration not stated)', '77.1 µM (active)'),
  ('CCC(C)(NC(=O)c1cc(Cl)c(C)c(Cl)c1)C(=O)CCl (configuration not stated)', '22.9 µM (active)'),
  ('CCOC1Oc2ccc(OS(C)(=O)=O)cc2C1(C)C (configuration not stated)', '84.3 µM (active)');

Problem: Please report AC50 for the following compound: CC(C)(C)C(O)/C(=C\c1ccc(Cl)cc1Cl)n1cncn1 (configuration not stated)
Solution: 74.4 µM (active)

Problem: Please report AC50 for the following compound: CC(C)OC(=O)Nc1cccc(Cl)c1
Solution: 11.7 µM (active)

Problem: Please report AC50 for the following compound: O=C(Nc1ccccc1)Nc1cnns1
Solution: 58.3 µM (active)

====

Biological target: Cellular tumor antigen p53 (Homo sapiens) (UniProt P04637)
Sequence (P04637 whole entry, looked up): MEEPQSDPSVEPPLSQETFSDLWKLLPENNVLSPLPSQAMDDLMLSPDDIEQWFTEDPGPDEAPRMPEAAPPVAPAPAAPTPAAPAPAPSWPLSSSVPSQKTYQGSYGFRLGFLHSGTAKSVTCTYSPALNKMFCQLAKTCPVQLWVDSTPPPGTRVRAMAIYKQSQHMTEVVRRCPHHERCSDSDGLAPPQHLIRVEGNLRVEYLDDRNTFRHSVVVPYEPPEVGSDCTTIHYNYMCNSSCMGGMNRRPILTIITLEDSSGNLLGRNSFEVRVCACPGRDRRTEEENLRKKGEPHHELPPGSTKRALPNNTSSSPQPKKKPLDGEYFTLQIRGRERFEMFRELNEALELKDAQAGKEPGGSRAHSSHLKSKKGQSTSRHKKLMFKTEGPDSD
Experiment: TOX21_p53_BLA_p3_ratio: Tox21 HCT-116 p53 Agonism Beta-lactamase Assay, Ratio, Phase 3 (AID 2283596)
Records with an inconclusive call do not appear. The source made the active and inactive calls. The calls were made as follows: active = hit-call score of the fitted dose curve at least 0.9, where 1 is the maximum; inconclusive = response in the unintended direction; inactive = score below 0.9.
Give one outcome, nothing more. List: 1 (yes) (active), 0 (no) (inactive)

INSERT INTO measurements (compound, measurement_target, assigned_label) VALUES
  ('COP(=S)(OC)Oc1ccc([N+](=O)[O-])cc1', 'Cellular tumor antigen p53 (Homo sapiens) (UniProt P04637)', '0 (no)'),
  ('O=C(O)CCCOc1ccc(Cl)cc1Cl', 'Cellular tumor antigen p53 (Homo sapiens) (UniProt P04637)', '0 (no)');

Let's switch to this compound now.
Problem: Please indicate how the test categorized CC[C@H](C)[C@H]1O[C@]2(C=C[C@@H]1C)C[C@@H]1C[C@@H](C/C=C(\C)[C@@H](O[C@H]3C[C@H](OC)[C@@H](O[C@H]4C[C@H](OC)[C@@H](O)[C@H](C)O4)[C@H](C)O3)[C@@H](C)/C=C/C=C3\CO[C@@H]4[C@H](O)C(C)=C[C@@H](C(=O)O1)[C@]34O)O2 (tested in a mixture with another compound) .
Solution: 1 (yes)

====

Test: APR_HepG2_MitoticArrest_72hr: Apredica 72-hour HepG2 Assay for Mitotic Arrest (AID 2282918)
Conditions: high-content imaging, actives raise or lower the signal
Calls of active or inactive are those of the source. The calls were made as follows: active = hit-call score of the fitted dose curve at least 0.9, where 1 is the maximum; inactive = score below 0.9.
Give one outcome, nothing more. List: yes = active, no = inactive

INSERT INTO assay_data (molecule, assigned_label) VALUES
  ('CNC(=O)/C=C(\C)OP(=O)(OC)OC', 'no'),
  ('CNC(=O)Oc1ccccc1OC(C)C', 'no');

Problem: Please indicate how the test categorized Clc1ccccc1-c1nnc(-c2ccccc2Cl)nn1 .
Solution: no

Problem: Please indicate how the test categorized CCc1ccc(C(=O)NN(C(=O)c2cc(C)cc(C)c2)C(C)(C)C)cc1 .
Solution: no

Problem: Please indicate how the test categorized CC(C)N(C(=O)COc1nnc(C(F)(F)F)s1)c1ccc(F)cc1 .
Solution: yes

====

Assay: BSK_3C_TissueFactor: BioMAP Diversity Plus: 3C Assay for Tissue Factor Biomarker Activity (AID 2282997)
Settings: BioMAP 3C HUVEC, tissue factor biomarker readout; actives raise or lower the signal
The source made the active and inactive calls. How the source made its calls: active means hit-call score of the fitted dose curve at least 0.9, where 1 is the maximum; inactive means score below 0.9.
Give one outcome, nothing more. List: active, inactive

INSERT INTO measurements (compound, assigned_label) VALUES
  ('CCC(C)(NC(=O)c1cc(Cl)c(C)c(Cl)c1)C(=O)CCl (stereo unspecified)', 'active'),
  ('O=S(=O)(O)C(F)(F)C(F)(F)C(F)(F)C(F)(F)C(F)(F)C(F)(F)C(F)(F)C(F)(F)F', 'inactive'),
  ('C[C@H]1[C@H](c2ccc(Cl)cc2)SC(=O)N1C(=O)NC1CCCCC1', 'inactive'),
  ('CCC(C)Nc1c([N+](=O)[O-])cc(C(C)(C)C)cc1[N+](=O)[O-] (stereo unspecified)', 'inactive'),
  ('ClC1C(Cl)C(Cl)C(Cl)C(Cl)C1Cl (stereo unspecified)', 'inactive'),
  ('CNC(=O)Oc1ccccc1OC(C)C', 'inactive');

Problem: Please indicate how the test categorized COP(=S)(OC)Oc1ccc(SC)c(C)c1 .
Solution: inactive

Problem: Please indicate how the test categorized CNC(=O)/C=C(\C)OP(=O)(OC)OC .
Solution: inactive

Problem: Please indicate how the test categorized C#CCN1C(=O)COc2cc(F)c(N3C(=O)C4=C(CCCC4)C3=O)cc21 .
Solution: inactive

Problem: Please indicate how the test categorized CC(C)(C)C(O)C(Oc1ccc(Cl)cc1)n1cncn1 (stereo unspecified) .
Solution: inactive

Problem: Please indicate how the test categorized COC(=O)c1ccccc1CS(=O)(=O)NC(=O)Nc1nc(OC)cc(OC)n1 .
Solution: inactive
